Below, each of the compounds is paired with its reported Minimum inhibitory concentration value.
Test system: C. glabrata clinical strains
Test: MIC, clinical yeast strains
Assay type: cell-based, Candida glabrata
Design: unit: µg/ml
Settings: C. glabrata clinical yeast strain 1
Square brackets hold non-standard residues; d marks the D form. Peptide text beside a SMILES is read from it.
API doc: respond with a numeric literal and nothing else, no unit.

Challenge: # input compound: CC(C)C[C@@H](NC(=O)[C@@H](CCCCN)NC(=O)[C@@H](Cc1c[nH]c2ccccc12)NC(=O)[C@@H](CCCCN)NC(=O)[C@@H](C)NC(=O)[C@@H](Cc1c[nH]cn1)NC(=O)[C@@H](CC(C)C)NC(=O)[C@@H](CCCNC(=N)N)NC(=O)[C@@H](Cc1c[nH]c2ccccc12)NC(=O)[C@H](N)Cc1c[nH]c2ccccc12)C(=O)N[C@H](Cc1c[nH]c2ccccc12)C(=O)O [Chain109D] (H-[dW][dW][dR][dL][dH][dA][dK][dW][dK][dL][dW]-OH) ; wanted: its Minimum inhibitory concentration
Response given: 128

Challenge: // query: CC(C)C[C@@H](NC(=O)[C@H](N)CCCCN)C(=O)N[C@H](CCCCN)C(=O)N[C@H](Cc1c[nH]c2ccccc12)C(=O)N[C@H](Cc1ccccc1)C(=O)N[C@H](Cc1c[nH]c2ccccc12)C(=O)N[C@H](CC(C)C)C(=O)N[C@H](Cc1ccccc1)C(=O)N[C@H](CCCCN)C(=O)N[C@H](CCCCN)C(=O)N[C@H](CCCNC(=N)N)C(=O)O [Chain311D] (H-[dK][dL][dK][dW][dF][dW][dL][dF][dK][dK][dR]-OH)
Response given: 16

====

System: S. aureus RN4220
Assay type: cell-based, Staphylococcus aureus
Conditions: antibiotic sensitive strain S. aureus RN4220
Ends that are not written are not given here.
PROPERTY: Minimum inhibitory concentration (MIC), S. aureus RN4220

ORDERED RESIDUES | TARGET DESC | VALUE
KWIVWRWRFKR [Compound 201] | S. aureus RN4220 | 64 µg/mL

Challenge: # input sequence: KRKWRWLFKKL [Compound 310] ; wanted: its Minimum inhibitory concentration (MIC), S. aureus RN4220
Response given: >64 µg/mL

Challenge: // query: RLKWFLLFRKR [Compound 308]
Response given: >64 µg/mL

Challenge: // query: RKWRAMIRLHAKRLRK [Compound 104]
Response given: >64 µg/mL

Challenge: // query: RKWRAMIRLHAKWLRK [Compound 105]
Response given: >64 µg/mL

====

Tested on: Streptococcus pneumoniae clinical strains
Format: cell-based
Parameters: unit: μg/ml
Conditions: Streptococcus pneumoniae clinical strain 5; microdilution, Muller Hinton broth-cation adjusted, 0.02% BSA, 0.2% acetic acid
Description: Minimum inhibition concentrations (MICs) were determined against Escherichia coli (ATCC 25922), Staphylococcus aureus (ATCC 25923), Klebsiella pneumoniae (ATCC 10031) and Pseudomonas aeruginosa (ATCC 27853). […] The susceptibility of these microorganisms to Chain peptides were determined using micro broth dilution assay. […] Concentrations of Chain peptides and reference antibiotics ranged from 0.125 to 128 μg/ml and the MICs were recorded as the lowest concentration with no visual growth of bacteria. […]
Square brackets hold non-standard residues; d marks the D form. Peptide text beside a SMILES is read from it.
Below, each of the compounds is paired with its reported Minimum inhibitory concentration value.

COMPOUND | Minimum inhibitory concentration
CC(C)C[C@@H](NC(=O)[C@H](N)CCCNC(=N)N)C(=O)N[C@H](CCCCN)C(=O)N[C@H](Cc1c[nH]c2ccccc12)C(=O)N[C@H](Cc1ccccc1)C(=O)N[C@H](CC(C)C)C(=O)N[C@H](CC(C)C)C(=O)N[C@H](Cc1ccccc1)C(=O)N[C@H](CCCNC(=N)N)C(=O)N[C@H](CCCCN)C(=O)N[C@H](CCCNC(=N)N)C(=O)O [Chain308D] (H-[dR][dL][dK][dW][dF][dL][dL][dF][dR][dK][dR]-OH) | 4
CC(C)C[C@@H](NC(=O)[C@@H](CCCCN)NC(=O)[C@@H](CCCCN)NC(=O)[C@@H](Cc1ccccc1)NC(=O)[C@@H](CC(C)C)NC(=O)[C@@H](Cc1c[nH]c2ccccc12)NC(=O)[C@@H](CCCNC(=N)N)NC(=O)[C@@H](Cc1c[nH]c2ccccc12)NC(=O)[C@@H](CCCCN)NC(=O)[C@@H](CCCNC(=N)N)NC(=O)[C@H](N)CCCCN)C(=O)O [Chain310D] (H-[dK][dR][dK][dW][dR][dW][dL][dF][dK][dK][dL]-OH) | 64

Next, consider the following compound.
Challenge: # input compound: CC[C@@H](C)[C@@H](N)C(=O)N[C@H](Cc1c[nH]c2ccccc12)C(=O)N[C@H](CCCCN)C(=O)N[C@H](CCCNC(=N)N)C(=O)N[C@H](Cc1ccccc1)C(=O)N[C@H](CCCNC(=N)N)C(=O)N[C@H](CC(C)C)C(=O)N[C@H](Cc1ccccc1)C(=O)N[C@H](CCCCN)C(=O)N[C@H](CCCCN)C(=O)N[C@H](Cc1c[nH]c2ccccc12)C(=O)O [Chain304D] (H-[dI][dW][dK][dR][dF][dR][dL][dF][dK][dK][dW]-OH) ; wanted: its Minimum inhibitory concentration
Response given: 64

====

Test system: Serratia marcescens clinical strains
Assay type: cell-based
Parameters: unit: μg/ml
Conditions: Serratia marcescens clinical strain 4; microdilution, Muller Hinton broth-cation adjusted, 0.02% BSA, 0.2% acetic acid
Square brackets hold non-standard residues; d marks the D form. Peptide text beside a SMILES is read from it.
PROPERTY: Minimum inhibitory concentration

Challenge: # input compound: CC(C)C[C@@H](NC(=O)[C@@H](CCCCN)NC(=O)[C@@H](CCCCN)NC(=O)[C@@H](Cc1ccccc1)NC(=O)[C@@H](CC(C)C)NC(=O)[C@@H](Cc1c[nH]c2ccccc12)NC(=O)[C@@H](CCCNC(=N)N)NC(=O)[C@@H](Cc1c[nH]c2ccccc12)NC(=O)[C@@H](CCCCN)NC(=O)[C@@H](CCCNC(=N)N)NC(=O)[C@H](N)CCCCN)C(=O)O [Chain310D] (H-[dK][dR][dK][dW][dR][dW][dL][dF][dK][dK][dL]-OH) ; wanted: its Minimum inhibitory concentration
Response given: >128

====

Test system: Streptococcus pneumoniae clinical strains
Format: cell-based
Set-up: unit: μg/ml
Settings: Streptococcus pneumoniae clinical strain 1; microdilution, Muller Hinton broth-cation adjusted, 0.02% BSA, 0.2% acetic acid
Square brackets hold non-standard residues; d marks the D form. Peptide text beside a SMILES is read from it.
PROPERTY: Minimum inhibitory concentration
API doc: respond with a numeric literal and nothing else, no unit.

# example entries with known answers
MOLECULE | Minimum inhibitory concentration
CC(C)C[C@@H](NC(=O)[C@H](N)CCCNC(=N)N)C(=O)N[C@H](CCCCN)C(=O)N[C@H](CCCNC(=N)N)C(=O)N[C@H](Cc1c[nH]c2ccccc12)C(=O)N[C@H](CCCNC(=N)N)C(=O)N[C@H](CC(C)C)C(=O)N[C@H](Cc1ccccc1)C(=O)N[C@H](CCCNC(=N)N)C(=O)N[C@H](CCCCN)C(=O)N[C@H](CCCNC(=N)N)C(=O)O [Chain306D] (H-[dR][dL][dK][dR][dW][dR][dL][dF][dR][dK][dR]-OH) | 64
CC[C@@H](C)[C@@H](NC(=O)[C@@H](Cc1c[nH]c2ccccc12)NC(=O)[C@H](N)CCCCN)C(=O)N[C@@H](C(=O)N[C@H](Cc1c[nH]c2ccccc12)C(=O)N[C@H](CCCNC(=N)N)C(=O)N[C@H](Cc1c[nH]c2ccccc12)C(=O)N[C@H](CCCNC(=N)N)C(=O)N[C@H](Cc1ccccc1)C(=O)N[C@H](CCCCN)C(=O)N[C@H](CCCNC(=N)N)C(=O)O)C(C)C [Chain201D] (H-[dK][dW][dI][dV][dW][dR][dW][dR][dF][dK][dR]-OH) | 8

Challenge: # input molecule: CC[C@@H](C)[C@@H](N)C(=O)N[C@H](Cc1c[nH]c2ccccc12)C(=O)N[C@H](CCCCN)C(=O)N[C@H](CCCNC(=N)N)C(=O)N[C@H](Cc1ccccc1)C(=O)N[C@H](CCCNC(=N)N)C(=O)N[C@H](CC(C)C)C(=O)N[C@H](Cc1ccccc1)C(=O)N[C@H](CCCCN)C(=O)N[C@H](CCCCN)C(=O)N[C@H](Cc1c[nH]c2ccccc12)C(=O)O [Chain304D] (H-[dI][dW][dK][dR][dF][dR][dL][dF][dK][dK][dW]-OH) ; wanted: its Minimum inhibitory concentration
Response given: 128

====

Test system: C. glabrata clinical strains
Test: MIC, clinical yeast strains
Format: cell-based, Candida glabrata
Set-up: unit: µg/ml
Settings: C. glabrata clinical yeast strain 4
Square brackets hold non-standard residues; d marks the D form. Peptide text beside a SMILES is read from it.
PROPERTY: Minimum inhibitory concentration

COMPOUND | TARGET DESC | Minimum inhibitory concentration
CC(C)C[C@@H](NC(=O)[C@@H](CCCCN)NC(=O)[C@@H](Cc1c[nH]c2ccccc12)NC(=O)[C@@H](CCCCN)NC(=O)[C@@H](C)NC(=O)[C@@H](Cc1c[nH]cn1)NC(=O)[C@@H](CC(C)C)NC(=O)[C@@H](CCCNC(=N)N)NC(=O)[C@@H](Cc1c[nH]c2ccccc12)NC(=O)[C@H](N)Cc1c[nH]c2ccccc12)C(=O)N[C@H](Cc1c[nH]c2ccccc12)C(=O)O [Chain109D] (H-[dW][dW][dR][dL][dH][dA][dK][dW][dK][dL][dW]-OH) | C. glabrata clinical strains | 64
CC[C@@H](C)[C@@H](NC(=O)[C@@H](CC(C)C)NC(=O)[C@@H](CCCNC(=N)N)NC(=O)[C@H](N)CCCNC(=N)N)C(=O)N[C@H](Cc1c[nH]c2ccccc12)C(=O)N[C@H](CCCNC(=N)N)C(=O)N[C@H](CCCNC(=N)N)C(=O)N[C@H](Cc1ccccc1)C(=O)N[C@H](CCCCN)C(=O)N[C@H](Cc1c[nH]c2ccccc12)C(=O)N[C@H](CC(C)C)C(=O)N[C@H](CCCNC(=N)N)C(=O)O [Chain204D] (H-[dR][dR][dL][dI][dW][dR][dR][dF][dK][dW][dL][dR]-OH) | C. glabrata clinical strains | 32

Next, consider the following compound.
Challenge: Hi! What's the reported Minimum inhibitory concentration for C[C@@H]1[C@H](O)[C@@H](C)/C=C/C=C/C=C/C=C/C=C/C=C/C=C/[C@H](O[C@@H]2O[C@H](C)[C@@H](O)[C@H](N)[C@@H]2O)C[C@@H]2O[C@](O)(C[C@@H](O)C[C@@H](O)[C@H](O)CC[C@@H](O)C[C@@H](O)CC(=O)O[C@H]1C)C[C@H](O)[C@H]2C(=O)O [Amphotericin B] on C. glabrata clinical strains?
Response given: 4

These entries and their values trace back to patent US10457709B2.
